Measured on: T1, human GIP receptor (human, UniProt P48546 22-466)
T1 sequence (looked up): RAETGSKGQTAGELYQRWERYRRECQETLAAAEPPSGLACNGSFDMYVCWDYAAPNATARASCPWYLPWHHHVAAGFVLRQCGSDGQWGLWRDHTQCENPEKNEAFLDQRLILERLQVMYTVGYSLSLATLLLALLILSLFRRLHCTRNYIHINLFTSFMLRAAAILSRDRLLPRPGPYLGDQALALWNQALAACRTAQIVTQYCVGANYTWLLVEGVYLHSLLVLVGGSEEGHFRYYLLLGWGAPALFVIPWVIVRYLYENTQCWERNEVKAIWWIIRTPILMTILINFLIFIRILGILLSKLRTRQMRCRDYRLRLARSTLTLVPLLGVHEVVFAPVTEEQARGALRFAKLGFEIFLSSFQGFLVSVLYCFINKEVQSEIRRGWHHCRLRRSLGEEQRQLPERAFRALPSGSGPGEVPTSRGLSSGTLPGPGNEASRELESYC
Method: cell-based or functional assay
Attribute: cAMP Rel. A (%) against human GIP, human GIP R cells
Measurement name: cAMP Rel. A (%) against human GIP, human GIP R cells

Binder	Value
YXQGTXTSDYSIXLDKKAQXAFIEFLLETGPSSGAPPPS (Aib at 2; αMeF at 6; αMeL at 13; Lys 17 side chain AEEAc-AEEAc-γGlu-CO(CH2)18COOH; Aib at 20; C-terminal amide (NH2)) [Compound 14]	1650
YXQGTXTSDYSIFLDKKAQXAFIEFLLETGPSSGAPPPS (Aib at 2; αMeF at 6; Lys 17 side chain AEEAc-AEEAc-γGlu-CO(CH2)18COOH; Aib at 20; C-terminal amide (NH2)) [Compound 12]	221
YXQGTXTSDYSIFLDKKAQXAFIEFLLESHPSSGAPPXS (Aib at 2; αMeF(2F) at 6; Lys 17 side chain AEEAc-AEEAc-γGlu-CO(CH2)18COOH; Aib at 20; Ac3c at 38; C-terminal amide (NH2)) [Compound 10]	862
YXQGTXTSDYSIXLDKKAQXAFIEYLLESHPSSXHPPXS (Aib at 2; αMeF(2F) at 6; αMeL at 13; Lys 17 side chain AEEAc-AEEAc-γGlu-CO(CH2)18COOH; Aib at 20; Aib at 34; Ac3c at 38; C-terminal amide (NH2)) [Compound 43]	441
YXQGTXTSDYSIFLDKKAQXAFIEYLLEGGPSSGAPPXS (Aib at 2; αMeF(2F) at 6; Lys 17 side chain AEEAc-AEEAc-γGlu-CO(CH2)18COOH; Aib at 20; Ac3c at 38; C-terminal amide (NH2)) [Compound 4]	318
YXQGTXTSDYSIXLDKKAQXAFIEYLLETGPSSGAPPXS (Aib at 2; αMeF at 6; αMeL at 13; Lys 17 side chain AEEAc-AEEAc-γGlu-CO(CH2)18COOH; Aib at 20; Ac3c at 38; C-terminal amide (NH2)) [Compound 1]	1210
